- assay-protocol: Determination of inhibitor concentration in mouse plasma after intraperitoneal and oral dosing
- Assay type: in vivo
- test-context: female, PO, 25 mg/kg, vehicle CMC, read-out: Cmax
metric-name: Cmax (ng/mL)
Give bare numbers, in ng/mL.

Reported Cmax, compound CCn1nc(C)cc1C(=O)Nc1cc(Nc2ccc3c(/C=C/c4ccccn4)n[nH]c3c2)c(F)cc1C.Cl [Example 59(c)] : ____
50000

----------
- assay-protocol: Determination of inhibitor concentration in mouse plasma after intraperitoneal and oral dosing
- Assay type: in vivo
- test-context: PO, 25 mg/kg, vehicle PEG400:H2O pH 2.3 30:70
metric-name: Cmax

- molecule: "CN(O)C(=O)c1ccccc1Sc1ccc2c(/C=C/c3ccccn3)n[nH]c2c1 [Example 35(o)]"
  reading: "486 ng/mL"
- molecule: "Cc1cc(C(=O)Nc2cccc(C(=O)c3ccc4c(/C=C/c5ccccn5)n[nH]c4c3)c2)n(C(C)C)n1 [Example 41(x)]"
  reading: "4587 ng/mL"
- molecule: "CC(C)COC(=O)Nc1cccc(C(=O)c2ccc3c(/C=C/c4ccccn4)n[nH]c3c2)c1 [Example 41(y)]"
  reading: "Blq"
- molecule: "CCn1nc(C)cc1C(=O)Nc1cccc(Oc2ccc3c(/C=C/c4ccccn4)n[nH]c3c2)c1 [Example 31(d)]"
  reading: "50810 ng/mL"
- molecule: "Cc1cc(C(=O)Nc2cc(C(=O)c3ccc4c(/C=C/c5ccccn5)n[nH]c4c3)ccc2C)n(C)n1 [Example 41(hh)]"
  reading: "1526 ng/mL"

Report Cmax for every entry below.
1. O=C(NNC(=O)c1ccccc1Sc1ccc2c(/C=C/c3ccccn3)n[nH]c2c1)c1cccs1 [Example 35(m)]
2. O=C(NNc1ccccn1)c1ccccc1Sc1ccc2c(/C=C/c3ccccn3)n[nH]c2c1 [Example 35(n)]

1: 7 ng/mL; 2: 3545 ng/mL

----------
Assignment: determine reported % remain (HLM, 2 h) for the given compounds.
- assay-protocol: Human liver microsome (HLM) assay
- Format: in vitro ADME
- test-context: human liver microsomes, 5 μM test compound
Numbers only, in %.

# annotated cases, reported % remain (HLM, 2 h) shown
- compound: "CCn1nc(C)cc1C(=O)Nc1cccc(C(=O)c2ccc3c(/C=C/c4ccccn4)n[nH]c3c2)c1 [Example 41(a)]"
  uom: "%"
  % remain (HLM, 2 h): 96
- compound: "CC(C)ONC(=O)c1ccccc1Sc1ccc2c(/C=C/c3ccccn3)n[nH]c2c1 [Example 35(k)]"
  uom: "%"
  % remain (HLM, 2 h): 14
- compound: "O=C(Nc1ccccc1)c1ccccc1Sc1ccc2c(/C=C/c3ccccn3)n[nH]c2c1 [Example 33(c)]"
  uom: "%"
  % remain (HLM, 2 h): 16
- compound: "C=CCn1nc(C)cc1C(=O)Nc1cc(C(=O)c2ccc3c(/C=C/c4ccccn4)n[nH]c3c2)ccc1C [Example 41(ff)]"
  uom: "%"
  % remain (HLM, 2 h): 68
- compound: "Cc1ccc(CNC(=O)c2ccccc2Sc2ccc3c(/C=C/c4ccccn4)n[nH]c3c2)o1 [Example 35(h)]"
  uom: "%"
  % remain (HLM, 2 h): 9
- compound: "C=C(C)CNC(=O)c1ccccc1Sc1ccc2c(/C=C/c3ccccn3)n[nH]c2c1 [Example 35(ee)]"
  uom: "%"
  % remain (HLM, 2 h): 13
- compound: "CC(C)ONC(=O)c1cccc(F)c1Sc1ccc2c(/C=C/c3ccccn3)n[nH]c2c1 [Example 37(c)]"
  uom: "%"
  % remain (HLM, 2 h): 21

In the following, a different compound is considered.
Reported % remain (HLM, 2 h), compound O=C(NCc1ccccc1F)c1ccccc1Sc1ccc2c(/C=C/c3ccccn3)n[nH]c2c1 [Example 35(f)] : ____
15

----------
Assignment: determine reported inhibition at 1 µM for the given compounds.
- tgt: human FGF-R1 (Homo sapiens, UniProt P11362, C488A/C584S/L457V)
- Sequence (P11362 456-766 L457V/C488A/C584S): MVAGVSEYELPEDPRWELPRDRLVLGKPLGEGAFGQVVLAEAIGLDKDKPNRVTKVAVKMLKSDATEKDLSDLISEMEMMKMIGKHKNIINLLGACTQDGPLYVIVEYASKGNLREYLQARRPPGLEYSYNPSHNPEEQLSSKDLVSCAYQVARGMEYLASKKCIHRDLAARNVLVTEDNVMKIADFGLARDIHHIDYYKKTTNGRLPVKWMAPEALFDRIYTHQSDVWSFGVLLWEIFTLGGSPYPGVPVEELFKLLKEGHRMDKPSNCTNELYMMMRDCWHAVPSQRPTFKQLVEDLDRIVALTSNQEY
- assay-protocol: FGF-R spectrophotometric assay
- test-context: read-out: FGF-P % inhibition, Table 1; compound concentration 1 μM
One number for each entry, in %.

# annotated cases, reported inhibition at 1 µM shown
- compound: "Cc1cc(C(=O)Nc2cccc(Oc3ccc4c(/C=C/c5ccccn5)n[nH]c4c3)c2)n(C)n1"
  tgt: "human FGF-R1 (Homo sapiens, UniProt P11362, C488A/C584S/L457V)"
  uom: "%"
  inhibition at 1 µM: 89
- compound: "O=C(Nc1cc(Nc2ccc3c(/C=C/c4ccccc4)n[nH]c3c2)ccc1F)c1ccccc1"
  tgt: "human FGF-R1 (Homo sapiens, UniProt P11362, C488A/C584S/L457V)"
  uom: "%"
  inhibition at 1 µM: 88
- compound: "C#CCNC(=O)c1ccccc1Nc1ccc2c(/C=C/c3ccccn3)n[nH]c2c1"
  tgt: "human FGF-R1 (Homo sapiens, UniProt P11362, C488A/C584S/L457V)"
  uom: "%"
  inhibition at 1 µM: 50
- compound: "O=C(c1cccc(NC(=O)c2ccccn2)c1)c1ccc2c(/C=C/c3ccccn3)n[nH]c2c1"
  tgt: "human FGF-R1 (Homo sapiens, UniProt P11362, C488A/C584S/L457V)"
  uom: "%"
  inhibition at 1 µM: 37
- compound: "CCn1nc(C)cc1C(=O)Nc1cc(C(=O)c2ccc3c(/C=C/c4ccccn4)n[nH]c3c2)c(C)cc1C"
  tgt: "human FGF-R1 (Homo sapiens, UniProt P11362, C488A/C584S/L457V)"
  uom: "%"
  inhibition at 1 µM: 91
- compound: "O=C(c1cccc(NC(=O)c2ccno2)c1)c1ccc2c(/C=C/c3ccccc3)n[nH]c2c1"
  tgt: "human FGF-R1 (Homo sapiens, UniProt P11362, C488A/C584S/L457V)"
  uom: "%"
  inhibition at 1 µM: 88
- compound: "CCn1nc(C)cc1C(=O)Nc1cc(Oc2ccc3c(/C=C/c4ncc[nH]4)n[nH]c3c2)ccc1C"
  tgt: "human FGF-R1 (Homo sapiens, UniProt P11362, C488A/C584S/L457V)"
  uom: "%"
  inhibition at 1 µM: 98
- compound: "Cc1cnccc1C(=O)Nc1cccc(C(=O)c2ccc3c(/C=C/c4ccccn4)n[nH]c3c2)c1"
  tgt: "human FGF-R1 (Homo sapiens, UniProt P11362, C488A/C584S/L457V)"
  uom: "%"
  inhibition at 1 µM: 41
- compound: "O=C(Nc1cccc(C(=O)c2ccc3c(/C=N/n4cccc4)n[nH]c3c2)c1)c1ccccc1"
  tgt: "human FGF-R1 (Homo sapiens, UniProt P11362, C488A/C584S/L457V)"
  uom: "%"
  inhibition at 1 µM: 79

In the following, a different compound is considered.
Reported inhibition at 1 µM, compound O=C(c1cccc(NC(=O)C2C[C@H]2c2ccccc2)c1)c1ccc2c(/C=C/c3ccccn3)n[nH]c2c1 (stereo partly shown) : ____
76

----------
- System: human umbilical vein endothelial cells (HUVEC)
- assay-protocol: HUVEC proliferation assay (VEGF-stimulated, MTT);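 note: relative to VEGF-stimulated control minus starvation-medium baseline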
- Assay type: cell-based
- test-context: Library II, Y=S; 0.5 mM (column head; text: nominal 0.5 nM); crude reaction mixtures
metric-name: % inhibition of the proliferation of HUVEC (%)
Give bare numbers, in %.

# annotated cases, reported % inhibition of the proliferation of HUVEC shown
- molecule: "CC1(C)CC(NC(=O)c2ccccc2Sc2ccc3c(/C=C/c4ccccn4)n[nH]c3c2)CC(C)(C)N1"
  tgt: "human umbilical vein endothelial cells (HUVEC)"
  reading: 35
- molecule: "Cc1csc(NC(=O)c2ccccc2Sc2ccc3c(/C=C/c4ccccn4)n[nH]c3c2)n1"
  tgt: "human umbilical vein endothelial cells (HUVEC)"
  reading: 15
- molecule: "O=C(NCCCN1CCCC1=O)c1ccccc1Sc1ccc2c(/C=C/c3ccccn3)n[nH]c2c1"
  tgt: "human umbilical vein endothelial cells (HUVEC)"
  reading: 25
- molecule: "O=C(NCCCN(CCO)CCO)c1ccccc1Sc1ccc2c(/C=C/c3ccccn3)n[nH]c2c1"
  tgt: "human umbilical vein endothelial cells (HUVEC)"
  reading: 4
- molecule: "CCN(CCNC(=O)c1ccccc1Sc1ccc2c(/C=C/c3ccccn3)n[nH]c2c1)c1cccc(C)c1"
  tgt: "human umbilical vein endothelial cells (HUVEC)"
  reading: 17

Report % inhibition of the proliferation of HUVEC for every entry below.
1. CN(CCCNC(=O)c1ccccc1Sc1ccc2c(/C=C/c3ccccn3)n[nH]c2c1)c1ccccc1
2. CCOCCNC(=O)c1ccccc1Sc1ccc2c(/C=C/c3ccccn3)n[nH]c2c1 [drawing 732]
3. CC1CCCCN1CCCNC(=O)c1ccccc1Sc1ccc2c(/C=C/c3ccccn3)n[nH]c2c1 (stereo not drawn)
4. CC1CCC(NC(=O)c2ccccc2Sc2ccc3c(/C=C/c4ccccn4)n[nH]c3c2)CC1 (stereo not drawn)

[18, 53, 25, "−11"]

----------
- assay-protocol: Determination of inhibitor concentration in mouse plasma after intraperitoneal and oral dosing
- Assay type: in vivo
- test-context: PO, 25 mg/kg, vehicle PEG400:H2O pH 2.3 30:70
Give 1 when the value for plasma half-life (T1/2) is at least 2 h. Give -1 when it is less.

Solved cases (9 shown):
- smiles-str: "COc1ccc(CNC(=O)c2ccccc2Sc2ccc3c(/C=C/c4ccccn4)n[nH]c3c2)cc1"
  group-label: 1
- smiles-str: "COc1cc(C(=O)Nc2cccc(C(=O)c3ccc4c(/C=C/c5ccccn5)n[nH]c4c3)c2)cc(Cl)n1"
  group-label: 1
- smiles-str: "Cc1cc(C(=O)Nc2cc(C(=O)c3ccc4c(/C=C/c5ccccn5)n[nH]c4c3)c(C)cc2C)n(C)n1"
  group-label: 1
- smiles-str: "C=CCn1nc(C)cc1C(=O)Nc1cccc(C(=O)c2ccc3c(/C=C/c4ccccn4)n[nH]c3c2)c1"
  group-label: 1
- smiles-str: "O=C(NNc1ccccn1)c1ccccc1Sc1ccc2c(/C=C/c3ccccn3)n[nH]c2c1"
  group-label: -1
- smiles-str: "Cc1cnccc1C(=O)Nc1cccc(C(=O)c2ccc3c(/C=C/c4ccccn4)n[nH]c3c2)c1"
  group-label: -1
- smiles-str: "CCCn1nc(C)cc1C(=O)Nc1cc(C(=O)c2ccc3c(/C=C/c4ccccn4)n[nH]c3c2)ccc1C"
  group-label: 1
- smiles-str: "O=C(NCc1ccncc1)c1ccccc1Sc1ccc2c(/C=C/c3ccccn3)n[nH]c2c1"
  group-label: -1
- smiles-str: "COc1cccc(CNC(=O)c2ccccc2Sc2ccc3c(/C=C/c4ccccn4)n[nH]c3c2)c1"
  group-label: 1

We now examine a further compound.
Item "O=C(NCCc1cccs1)c1ccccc1Sc1ccc2c(/C=C/c3ccccn3)n[nH]c2c1" with plasma half-life (T1/2) of 2 h or above?
-1
